Tested on: OF1 mice
test_name: Maximal electroshock test (MES Test)
Type: in vivo
reported_conditions: Mus musculus, po; 50 mg/kg, p.o., pre-treatment time −1 h; read-out: %-Protection
Experimental: Compounds of the invention were tested in OF1 mice using the maximal electroshock test (MES Test) described in detail by Schmutz et al., Naunyn-Schmiedeberg's Arch Pharmacol 1990, 342, 61-66. […] Five mice were used for each treatment condition and the percentage of protected mice was used as readout (i.e. a compound could give 0%, 20%, 40%, 60%, 80% or 100% protection). […]
Reported responders at 50 mg/kg values follow for various compounds
property: responders at 50 mg/kg (%)

CCOC(=O)N(n1c(=O)[nH]c2cc(C(F)(F)F)c(-n3cccc3)cc2c1=O)S(C)(=O)=O [Example 8.05]: 60
CC(C)C(=O)N(n1c(=O)[nH]c2cc(C(F)(F)F)c(-c3ccnn3C(C)C)cc2c1=O)S(C)(=O)=O [Example 5.05]: 60
COCCOC(=O)N(n1c(=O)[nH]c2cc(C(F)(F)F)c([C@H]3CCCO3)cc2c1=O)S(C)(=O)=O [Example 10.07]: 60
CC(=O)N(n1c(=O)[nH]c2cc(C(F)(F)F)c(-c3ccnn3C(C)C)cc2c1=O)S(C)(=O)=O [Example 5.01]: 60
CCC(OC)c1cc2c(=O)n(N(C(=O)OCCOC)S(C)(=O)=O)c(=O)[nH]c2cc1C(F)(F)F (centres unmarked) [Example 11.01]: 60

###

Tested on: OF1 mice
test_name: Maximal electroshock test (MES Test)
Format: in vivo
reported_conditions: Mus musculus, po; 50 mg/kg, p.o., pre-treatment time −1 h; read-out: %-Protection
Items are presented alongside their recorded responders at 50 mg/kg.
property: responders at 50 mg/kg (%)

CCCOC(=O)N(n1c(=O)[nH]c2cc(CC)c(-c3ccnn3C)cc2c1=O)S(C)(=O)=O [Example 2.06]: 60
CCc1cc2[nH]c(=O)n(NS(C)(=O)=O)c(=O)c2cc1-c1ccnn1C [Example 2.0]: 80
CCCCC(=O)N(n1c(=O)[nH]c2cc(C(F)(F)F)c(-n3cnnc3)cc2c1=O)S(C)(=O)=O [Example 9.03]: 20
CCC(=O)N(n1c(=O)[nH]c2cc(C(F)(F)F)c(-c3ccnn3CC)cc2c1=O)S(C)(=O)=O [Example 15.02]: 20
CCCOC(=O)N(n1c(=O)c2cc(-c3ccnn3C)c(C(C)C)cc2n(C(=O)OCCC)c1=O)S(C)(=O)=O [Example 3.34]: 80
CCOC(=O)CCC(=O)N(n1c(=O)[nH]c2cc(C(F)(F)F)c([C@H]3CCCO3)cc2c1=O)S(C)(=O)=O [Example 10.10]: 20

###

System: OF1 mice
test_name: Maximal electroshock test (MES Test)
Type: in vivo
reported_conditions: Mus musculus, po; 50 mg/kg, p.o., pre-treatment time −1 h; read-out: %-Protection
Entries and their responders at 50 mg/kg
property: responders at 50 mg/kg (%)

CCC(=O)N(n1c(=O)[nH]c2cc(C(F)(F)F)c(C(CC)OC)cc2c1=O)S(C)(=O)=O (stereo not shown): 100
CS(=O)(=O)N(C(=O)C1CCCC1)n1c(=O)[nH]c2cc(C(F)(F)F)c(-n3ccnc3)cc2c1=O: 40
COC(=O)N(n1c(=O)c2cc(-c3ccnn3C)c(C(C)C)cc2n(C(=O)OC)c1=O)S(C)(=O)=O: 80
CC(=O)N(n1c(=O)[nH]c2cc(C(F)(F)F)c(-n3ccnc3)cc2c1=O)S(C)(=O)=O: 40
